Reported CC50 values for a set of compounds
tested on: SHSY5Y cells; test: Cytotoxicity assay (MTT), SH-SY5Y; type: cell-based, human; settings: 72 h, mean ± SEM (n = 3)
Provide the reading as a plain figure in µM.

As a guide, the following entries are already answered.
Which CC50 reading was recorded for the compound O=C(CSSCC(=O)NC1CC1)NC1CC1 [Compound 11d] ?
202

Which CC50 reading was recorded for the compound CC(C)(C)NC(=O)CSSCC(=O)NC(C)(C)C [Compound 11g] ?
174

Further cases:
Which CC50 reading was recorded for the compound CCCNC(=O)CSSCC(=O)NCCC [Compound 11b] ?
220

* * *

system: HaCaT cells; assay: Cytotoxicity assay (MTT), HaCaT; assay type: cell-based, human; details: 72 h, mean ± SEM (n = 3)
measure: CC50

As a guide, the following entries are already answered.
Which CC50 reading was recorded for the compound O=C(CSSCC(=O)NC1CC1)NC1CC1 [Compound 11d] ?
69 µM

Which CC50 reading was recorded for the compound CCCNC(=O)CSSCC(=O)NCCC [Compound 11b] ?
58.4 µM

Let us examine a further case.
Which CC50 reading was recorded for the compound CC(C)(C)NC(=O)CSSCC(=O)NC(C)(C)C [Compound 11g] ?
43 µM

* * *

Reported IC50 values for a set of compounds
biological target: TrxR1 (Rattus norvegicus); experiment: TrxR inhibition assay (DTNB), rat liver (hepatocyte) lysate; conditions: TrxR IC50 Hepatocyte lysate, mean ± SEM (n = 3)
Sequence (O89049 whole entry): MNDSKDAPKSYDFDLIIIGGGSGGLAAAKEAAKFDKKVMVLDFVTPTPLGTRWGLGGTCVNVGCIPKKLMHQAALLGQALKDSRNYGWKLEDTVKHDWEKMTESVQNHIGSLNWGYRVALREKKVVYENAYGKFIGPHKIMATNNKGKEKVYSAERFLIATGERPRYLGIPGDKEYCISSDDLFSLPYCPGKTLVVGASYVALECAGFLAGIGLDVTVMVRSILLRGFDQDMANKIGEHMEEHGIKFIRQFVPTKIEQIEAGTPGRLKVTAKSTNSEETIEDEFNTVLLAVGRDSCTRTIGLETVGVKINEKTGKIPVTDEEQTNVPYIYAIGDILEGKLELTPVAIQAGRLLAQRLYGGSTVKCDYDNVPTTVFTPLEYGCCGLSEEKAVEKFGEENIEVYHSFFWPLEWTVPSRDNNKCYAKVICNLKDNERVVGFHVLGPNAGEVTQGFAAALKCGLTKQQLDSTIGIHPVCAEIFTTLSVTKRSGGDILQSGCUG
Provide the reading as a plain figure in µM.

Which IC50 reading was recorded for the compound CCCNC(=O)CSSCC(=O)N1CCOCC1 [Compound 12a] ?
45.6

Further cases:
Which IC50 reading was recorded for the compound O=C(CSSCC(=O)N1CCCC1)N1CCCC1 [Compound 11a] ?
170

* * *

target: UniProtKB O89049; assay: TrxR inhibition assay (DTNB), rat liver (hepatocyte) lysate; conditions: read-out: TrxR IC50 Hepatocyte lysate, mean ± SEM (n = 3)
measure: IC50

As a guide, the following entries are already answered.
Which IC50 reading was recorded for the compound COc1ccc(CNC(=O)CSSCC(=O)NCc2ccc(OC)cc2)cc1 [Compound 11e] ?
> 200 µM

Which IC50 reading was recorded for the compound NC(=O)CSSCC(N)=O [Compound 11j] ?
90.4 µM

Which IC50 reading was recorded for the compound CN1CCN(C(=O)CSSCC(=O)N2CCN(C)CC2)CC1 [Compound 11f] ?
> 200 µM

Which IC50 reading was recorded for the compound O=C(CSSCC(=O)N1CCOCC1)N1CCOCC1 [Compound 11c] ?
182 µM

Which IC50 reading was recorded for the compound COc1ccc(NC(=O)CSSCC(=O)Nc2ccc(OC)cc2)cc1 [Compound 11i] ?
> 200 µM

Which IC50 reading was recorded for the compound CC(C)(C)NC(=O)CSSCC(=O)NC(C)(C)C [Compound 11g] ?
22.2 µM

Further cases:
Which IC50 reading was recorded for the compound O=C(CSSCC(=O)Nc1ccc(F)cc1)Nc1ccc(F)cc1 [Compound 11h] ?
> 200 µM

Which IC50 reading was recorded for the compound O=C(CSSCC(=O)NC1CC1)NC1CC1 [Compound 11d] ?
34.7 µM

Which IC50 reading was recorded for the compound CCCNC(=O)CSSCC(=O)NCCC [Compound 11b] ?
26.5 µM

* * *

Target: TrxR1 (Homo sapiens, UniProt Q16881)
Construct: For TrxR assay, lysate from SH-SY5Y cells and rat liver were used; endogenous in cells
Sequence (Q16881 151-649 limits assumed): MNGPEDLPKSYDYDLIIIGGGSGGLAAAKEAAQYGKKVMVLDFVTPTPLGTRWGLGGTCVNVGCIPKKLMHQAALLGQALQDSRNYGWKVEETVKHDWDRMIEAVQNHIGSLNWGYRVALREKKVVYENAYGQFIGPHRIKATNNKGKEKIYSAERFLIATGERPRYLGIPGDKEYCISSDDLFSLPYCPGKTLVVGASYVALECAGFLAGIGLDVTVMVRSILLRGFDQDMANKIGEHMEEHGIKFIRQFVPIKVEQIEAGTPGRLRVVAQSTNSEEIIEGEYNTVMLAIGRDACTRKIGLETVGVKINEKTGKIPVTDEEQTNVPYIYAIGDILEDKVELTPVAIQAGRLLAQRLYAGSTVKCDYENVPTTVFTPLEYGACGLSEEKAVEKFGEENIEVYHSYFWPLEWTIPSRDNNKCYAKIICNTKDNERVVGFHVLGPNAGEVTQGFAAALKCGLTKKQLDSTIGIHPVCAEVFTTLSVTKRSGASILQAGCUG
Experiment: TrxR inhibition assay (DTNB), SH-SY5Y cell lysate
Details: neuroblastoma (SHSY5Y) lysate, mean ± SEM (n = 3)
pIC50: −log10 of the molar value.
measure: pIC50

As a guide, the following entries are already answered.
Which pIC50 reading was recorded for the compound COC(=O)CSSCC(=O)Nc1ccc(F)cc1 [Compound 13a] ?
3.73

Which pIC50 reading was recorded for the compound CCCNC(=O)CSSCC(=O)NCCC [Compound 11b] ?
< 3.70

Which pIC50 reading was recorded for the compound O=C(O)CSSCC(=O)O [Compound 14, 2,2′-disulfanediyldiacetic acid, reference compound] ?
< 3.70

Which pIC50 reading was recorded for the compound COc1ccc(CNC(=O)CSSCC(=O)NCc2ccc(OC)cc2)cc1 [Compound 11e] ?
< 3.70

Which pIC50 reading was recorded for the compound COc1ccc(NC(=O)CSSCC(=O)Nc2ccc(OC)cc2)cc1 [Compound 11i] ?
< 3.70

Further cases:
Which pIC50 reading was recorded for the compound O=C([O-])CSSCC(=O)[O-].[Na+].[Na+] [Compound 15, reference compound] ?
< 3.70

Which pIC50 reading was recorded for the compound COC(=O)CSSCC(=O)OC [Compound 17, Dimethyl 2,2′-disulfanediyldiacetate] ?
< 3.70

Which pIC50 reading was recorded for the compound NC(=O)CSSCC(N)=O [Compound 11j] ?
< 3.70

Which pIC50 reading was recorded for the compound CCCNC(=O)CSSCC(=O)N1CCOCC1 [Compound 12a] ?
4.35

Which pIC50 reading was recorded for the compound O=C(CSSCC(=O)NC1CC1)NC1CC1 [Compound 11d] ?
4.20

Which pIC50 reading was recorded for the compound O=C(CSSCC(=O)N1CCOCC1)N1CCOCC1 [Compound 11c] ?
3.72

Which pIC50 reading was recorded for the compound CN1CCN(C(=O)CSSCC(=O)N2CCN(C)CC2)CC1 [Compound 11f] ?
< 3.70
